Test system: Haemophilus influenzae
Experiment: Antibacterial activity against Haemophilus influenzae ATCC 49247 by broth microdilution technique
Format: functional
Below, each entry is listed alongside its reported MIC.
measured quantity: MIC

INSERT INTO measurements (structure_smiles_string, measured_quantity, result) VALUES
  ('CCOC(=O)c1cn(C2CC2)c2ccc(C#CCN3CCN(CCC(=O)O[C@H]4[C@H](C)O[C@@H](O[C@H]5[C@H](C)[C@@H](O[C@@H]6O[C@H](C)C[C@H](N(C)C)[C@H]6O)[C@](C)(O)C[C@@H](C)CN(C)[C@H](C)[C@@H](OC)[C@](C)(O)[C@@H](CC)OC(=O)[C@@H]5C)C[C@@]4(C)OC)CC3)cc2c1=O', 'MIC', '16 µg/mL'),
  ('CCOC(=O)c1cn(CC)c2ccc(/C=C/CN3CCNCC3)cc2c1=O', 'MIC', '> 64 µg/mL'),
  ('CCOC(=O)c1cn(CC)c2ccc(C#CCN3CCN(C(=O)OC(C)(C)C)CC3)cc2c1=O', 'MIC', '> 64 µg/mL');

====

Each entry below carries its recorded MIC.
Tested on: Streptococcus pyogenes
Assay: Antibacterial activity against constitutive macrolide, licosamide and streptogramin-resistant Streptococcus pyogenes 166 GR-Micro by broth microdilution technique
Format: functional
measured quantity: MIC

INSERT INTO assay_data (structure_smiles_string, measured_quantity, result) VALUES
  ('CCOC(=O)c1cn(CC)c2ccc(C#CCN3CCN(CCC(=O)O[C@H]4[C@H](C)O[C@@H](O[C@H]5[C@H](C)[C@@H](O[C@@H]6O[C@H](C)C[C@H](N(C)C)[C@H]6O)[C@](C)(OC)C[C@@H](C)C(=O)[C@H](C)[C@@H](O)[C@](C)(O)[C@@H](CC)OC(=O)[C@@H]5C)C[C@@]4(C)OC)CC3)cc2c1=O', 'MIC', '8 µg/mL'),
  ('CCOC(=O)c1cn(C2CC2)c2ccc(C#CCN3CCNCC3)cc2c1=O', 'MIC', '> 64 µg/mL'),
  ('CCOC(=O)c1cn(CC)c2ccc(CCCN3CCN(CCC(=O)O[C@H]4[C@H](C)O[C@@H](O[C@H]5[C@H](C)[C@@H](O[C@@H]6O[C@H](C)C[C@H](N(C)C)[C@H]6O)[C@](C)(O)C[C@@H](C)CN(C)[C@H](C)[C@@H](OC)[C@](C)(O)[C@@H](CC)OC(=O)[C@@H]5C)C[C@@]4(C)OC)CC3)cc2c1=O', 'MIC', '> 64 µg/mL'),
  ('CC[C@H]1OC(=O)[C@H](C)[C@@H](O[C@H]2C[C@@](C)(OC)[C@@H](O)[C@H](C)O2)[C@H](C)[C@@H](O[C@@H]2O[C@H](C)C[C@H](N(C)C)[C@H]2O)[C@](C)(OC)C[C@@H](C)C(=O)[C@H](C)[C@@H](O)[C@]1(C)O', 'MIC', '> 64 µg/mL'),
  ('CCOC(=O)c1cn(CC)c2ccc(C#CCN3CCN(CCC(=O)O[C@H]4[C@H](C)O[C@@H](O[C@H]5[C@H](C)[C@@H](O[C@@H]6O[C@H](C)C[C@H](N(C)C)[C@H]6O)[C@](C)(O)C[C@@H](C)CN(C)[C@H](C)[C@@H](O)[C@](C)(O)[C@@H](CC)OC(=O)[C@@H]5C)C[C@@]4(C)OC)CC3)cc2c1=O', 'MIC', '32 µg/mL');
